biological target: T1, human vascular endothelial growth factor receptor-2 Fc chimera (KDR-Fc) (human, UniProt P35968 20-764); assay: BIAcore, target-Fc immobilized
T1 construct: range 1-764; purchased from R&D Systems; also called hKDR; human VEGF-R2-Fc; not shown: human IgG1 Fc
T1 sequence (P35968 20-764 limits assumed, change not shown, form in doubt): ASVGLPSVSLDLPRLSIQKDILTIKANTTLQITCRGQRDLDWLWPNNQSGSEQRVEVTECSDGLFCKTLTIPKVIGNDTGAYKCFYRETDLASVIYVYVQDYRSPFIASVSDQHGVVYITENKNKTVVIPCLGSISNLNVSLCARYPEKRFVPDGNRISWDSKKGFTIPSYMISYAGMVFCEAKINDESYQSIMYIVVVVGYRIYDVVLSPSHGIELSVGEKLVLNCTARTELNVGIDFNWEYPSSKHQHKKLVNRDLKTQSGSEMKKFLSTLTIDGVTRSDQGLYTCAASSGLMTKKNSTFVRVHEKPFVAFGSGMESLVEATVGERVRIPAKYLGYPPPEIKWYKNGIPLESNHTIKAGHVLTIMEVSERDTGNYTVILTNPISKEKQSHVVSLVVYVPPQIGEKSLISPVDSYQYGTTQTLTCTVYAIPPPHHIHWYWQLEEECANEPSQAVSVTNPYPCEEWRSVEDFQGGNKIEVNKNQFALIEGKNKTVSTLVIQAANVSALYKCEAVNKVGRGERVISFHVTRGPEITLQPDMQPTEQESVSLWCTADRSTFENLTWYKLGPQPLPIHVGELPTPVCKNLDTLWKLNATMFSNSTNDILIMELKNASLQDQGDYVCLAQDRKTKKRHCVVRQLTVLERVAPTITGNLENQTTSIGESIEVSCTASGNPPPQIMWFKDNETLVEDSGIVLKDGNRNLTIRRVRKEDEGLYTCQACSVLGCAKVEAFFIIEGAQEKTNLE
Reported koff values follow for various binders
Unit s⁻¹ implied. Number only.

[[record]]
binder = "E18 (designed binder, Del 1-8 10Fn3 clone; Flag-tagged in vitro translated protein in the radioactive assay, His6-tagged E. coli protein in BIAcore and cell assays; tags left out) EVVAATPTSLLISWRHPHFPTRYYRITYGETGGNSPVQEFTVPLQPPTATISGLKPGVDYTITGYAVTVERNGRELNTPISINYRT"
number = 0.000121


Reported koff of M5FL (designed binder, extension and tag left out) VSDVPRDLEVVAATPTSLLISWRHPHFPTRYYRITYGETGGNSPVQEFTVPLQPPLATISGLKPGVDYTITGYAVTKERNGRELFTPISINYRT : 9.2e-05

Reported koff of E6 (designed binder, Del 1-8 10Fn3 clone; Flag-tagged in vitro translated protein in the radioactive assay, His6-tagged E. coli protein in BIAcore; tags left out) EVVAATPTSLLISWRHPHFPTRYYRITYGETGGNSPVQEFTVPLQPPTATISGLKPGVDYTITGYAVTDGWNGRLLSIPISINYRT : 6.7e-05

Reported koff of VR28 (designed binder, scaffold said to be unchanged from wild type 10Fn3; Flag-tagged in vitro translated protein in the radioactive assay, His6-tagged E. coli protein in BIAcore; tags left out; also called VR28 (I69T)) VSDVPRDLEVVAATPTSLLISWRHPHFPTRYYRITYGETGGNSPVQEFTVPLQPPTATISGLKPGVDYTITGYAVTVAQNDHELITPISINYRT : 0.00034
